- EXPERIMENTAL SYSTEM: 17β-HSD10 (Homo sapiens)
- Construct: Histev (histidine tag with TEV site) (N, cleaved yes); made in house; host or cells: E. coli BL21-CodonPlus
- Sequence (Q99714 1-261): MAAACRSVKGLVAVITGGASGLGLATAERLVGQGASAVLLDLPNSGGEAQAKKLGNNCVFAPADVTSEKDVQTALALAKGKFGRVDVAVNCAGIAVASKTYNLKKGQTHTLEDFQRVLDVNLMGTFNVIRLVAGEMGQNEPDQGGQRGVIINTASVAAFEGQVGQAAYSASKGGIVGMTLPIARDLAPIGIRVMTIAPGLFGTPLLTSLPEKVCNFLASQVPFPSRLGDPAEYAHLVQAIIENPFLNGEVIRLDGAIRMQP
- ASSAY: 17β-HSD10 (ABAD) enzyme inhibition assay, NADH oxidation read at 340 nm (primary screen and dose response)
- Type: biochemical
- CONDITIONS USED: recombinant 17βHSD10 enzyme assay
READOUT KIND: Max. Effect (%)
Provide only the numeric value, understood in %.

Lab note: CC(C)CN(CC(C)C)c1cccc(N(C)Cc2cnc[nH]2)c1 gave Max. Effect (%) of 15

What the record says about O=C(c1ncc[nH]1)N1CCC[C@H]1c1ccccc1 : Max. Effect (%) is 6.4

Max. Effect (%) recorded for this molecule, Cc1ccsc1C(=O)N1CCC[C@@H]1c1ccccc1-c1cnn(C)c1 , is 96

The measured Max. Effect (%) associated with Cc1ccc(C(=O)N(CC(C)C)c2cccc(N(C)Cc3c[nH]cn3)c2)c(F)c1 reads 102

Record CC(C)CN(C(=O)c1ccc(Cl)s1)c1cccc(N(C)Cc2c[nH]cn2)c1 , field Max. Effect (%): 90

Measured Max. Effect (%), COc1ccc(-c2ccccc2[C@@H]2CCCN2C(=O)c2sccc2Cl)cc1OC (racemic) : 93

O=C(c1[nH]ncc1Cl)N1CCC[C@H]1c1ccccn1 has a reported Max. Effect (%) of 17.5

The molecule listed as COc1cc(-c2ccccc2[C@@H]2CCCN2C(=O)c2sccc2Cl)ccc1C (racemic) shows Max. Effect (%) equal to 93

Record Cc1ccsc1C(=O)N1CCC[C@H]1c1ccccc1-c1ccccc1Cl (single isomer, unassigned) [ESC1002766] . Reported Max. Effect (%): 14
